pEC50 overview
- Test system: HCV (Ib) RNA replication
- assayExplanation: Cell-based luciferase reporter HCV (1b) RNA replication assay (replicon cell lines Huh-7 5.2 and ET)
- Design: species or system Hepatitis C virus
- conditionSummary: Hepatitis C virus, Huh-7, 96 h, HCV 1b genotype replicon, luciferase readout, 4 days incubation; read-out: EC50_1b
pEC50: −log10 of the molar value.

Record excerpt, results attached:
compound	recordedResult
COC(=O)N1CCC[C@H]1C(=O)N1C[C@@H](C)C[C@H]1c1nc2cc(-c3ccc(-c4ccc5[nH]c([C@@H]6C[C@H](C)CN6C(=O)[C@@H]6CCCN6C(=O)OC)nc5c4)cc3)ccc2[nH]1	≥ 8.30
COC(=O)N[C@H](CC1CCC1)C(=O)N1CCC[C@H]1c1nc2ccc(C#Cc3ccc4nc([C@@H]5CCCN5C(=O)[C@@H](CC5CCC5)NC(=O)OC)[nH]c4c3)cc2[nH]1	≥ 8.30

input: Entry `COC(=O)N[C@H](C(=O)N1C[C@@H](C)C[C@H]1c1nc2cc(-c3ccc4cc(-c5ccc6[nH]c([C@@H]7C[C@H](C)CN7C(=O)[C@@H](NC(=O)OC)C(C)C)nc6c5)ccc4c3)ccc2[nH]1)C(C)C` has what pEC50?
output: ≥ 8.30

input: Entry `O=C(OCc1ccccc1)N1CCCC[C@H]1c1nc2cc(C#Cc3ccc4nc([C@@H]5CCCN5C(=O)OCc5ccccc5)[nH]c4c3)ccc2[nH]1` has what pEC50?
output: 5.30 to 8.30

input: Entry `COC(=O)N[C@H](C(=O)N1CCC[C@H]1c1nc2cc(-c3ccc(-c4ccc5nc([C@@H]6CCCN6C(=O)[C@@H](NC(=O)OC)C(C)C)[nH]c5c4)cc3C)ccc2[nH]1)C(C)C` has what pEC50?
output: ≥ 8.30

input: Entry `COC(=O)N[C@H](C(=O)N1[C@H](C)CC[C@H]1c1nc2cc(-c3ccc(-c4ccc5[nH]c([C@@H]6CC[C@H](C)N6C(=O)[C@@H](NC(=O)OC)C(C)C)nc5c4)cc3)ccc2[nH]1)C(C)C` has what pEC50?
output: ≥ 8.30

###

EC50 overview
- Tested on: HCV (Ib) RNA replication
- assayExplanation: Cell-based luciferase reporter HCV (1b) RNA replication assay (replicon cell lines Huh-7 5.2 and ET)
- Set-up: species or system Hepatitis C virus
- conditionSummary: Hepatitis C virus, Huh-7, 96 h, HCV 1b genotype replicon, luciferase readout, 4 days incubation; read-out: EC50_1b

Record excerpt, results attached:
COC(=O)N[C@H](C(=O)N1[C@H](c2nc3cc(-c4ccc(-c5ccc6nc([C@@H]7CCC(C)(C)N7C(=O)[C@@H](NC(=O)OC)C(C)C)[nH]c6c5)cc4)ccc3[nH]2)CCC1(C)C)C(C)C ≤ 5 nM
COC(=O)N[C@@H](C)C(=O)N1CCC[C@H]1c1nc2cc(C#Cc3ccc4[nH]c([C@@H]5CCCN5C(=O)[C@@H](NC(=O)OC)C(C)C)nc4c3)ccc2[nH]1 ≤ 5 nM
COC(=O)N[C@H](C(=O)N1CCC[C@H]1c1nc2cc(F)c(-c3ccc(-c4cc5[nH]c([C@@H]6CCCN6C(=O)[C@@H](NC(=O)OC)C(C)C)nc5cc4F)cc3)cc2[nH]1)C(C)C ≤ 5 nM

input: Entry `COC(=O)N[C@H](C(=O)N1CCC[C@H]1c1nc2cc(-c3ccc(-c4ccc5nc([C@@H]6CCCN6C(=O)[C@@H](NC(=O)OC)C(C)C)[nH]c5c4)cc3CO)ccc2[nH]1)C(C)C` has what EC50?
output: ≤ 5 nM

input: Entry `COC(=O)N[C@H](C(=O)N1CCC[C@H]1c1nc2ccc(-c3ccc(-c4ccc5nc([C@@H]6CCCN6C(=O)[C@@H](NC(=O)OC)C(C)C)n(C)c5c4)cc3)cc2n1C)C(C)C` has what EC50?
output: ≤ 5 nM

input: Entry `COC(=O)N[C@H](C(=O)N1CCC[C@H]1c1nc2cc(-c3ccc(-c4ccc5nc([C@@H]6CCCN6C(=O)[C@@H](NC(=O)OC)C(C)(C)O)[nH]c5c4)c4c3OCO4)ccc2[nH]1)C(C)(C)O` has what EC50?
output: ≤ 5 nM

input: Entry `CC(C)[C@H](NC(=O)O[C@H]1CCOC1)C(=O)N1CCC[C@H]1c1nc2cc(-c3cscc3-c3ccc4[nH]c([C@@H]5CCCN5C(=O)[C@@H](NC(=O)O[C@H]5CCOC5)C(C)C)nc4c3)ccc2[nH]1` has what EC50?
output: 5 to 5000 nM

input: Entry `COC(=O)N(C)[C@H](C(=O)N1C[C@@H](C)C[C@H]1c1nc2cc(-c3cc(C)c(-c4ccc5[nH]c([C@@H]6C[C@H](C)CN6C(=O)[C@H](C(C)C)N(C)C(=O)OC)nc5c4)cc3C)ccc2[nH]1)C(C)C` has what EC50?
output: ≤ 5 nM

input: Entry `COC(=O)N[C@H](C(=O)N1CCC[C@H]1c1nc2cc(CCc3ccc4[nH]c([C@@H]5CCCN5C(=O)[C@H](NC(=O)OC)C(C)C)nc4c3)ccc2[nH]1)C(C)C` has what EC50?
output: ≤ 5 nM

input: Entry `COC(=O)N[C@H](C(=O)N1CCC[C@H]1c1nc2cc(C#Cc3ccc4[nH]c([C@@H]5CCCN5C(=O)[C@@H](NC(=O)OC)C5CC5)nc4c3)ccc2[nH]1)C1CC1` has what EC50?
output: 5 to 5000 nM
